Give measured Viability %, A549, 4th concentration for each item. Keep answers brief.
# Tested on: human lung cancer (A549) cell line
# PROTOCOL_NOTES: Cytotoxic activity, MTT assay, lung (A549)
# CONDITION_LABEL: Conc.: 5a 107.63, 5d 101.09, 5e 98.31, 5f 94.51, 7a 101.72, 7f 89.93, DOX 91.99
All answers are understood in %, so give the number only.

In plain terms, Cc1c(C=Nc2[nH]nc(Nc3ccccc3)c2C(=O)Nc2ccccc2)c(=O)n(-c2ccccc2)n1C [7a] has a documented Viability %, A549, 4th concentration of 37.08

In plain terms, COc1ccc(Nc2n[nH]c(/N=C/c3ccc(N4CCCCC4)cc3)c2C(=O)Nc2ccccc2)cc1 [5d] has a documented Viability %, A549, 4th concentration of 36.58

In plain terms, COc1ccc(Nc2n[nH]c(N=Cc3c(C)n(C)n(-c4ccccc4)c3=O)c2C(=O)Nc2ccc(Cl)cc2)cc1 [7f] has a documented Viability %, A549, 4th concentration of 45.23

In plain terms, COc1ccc(Nc2n[nH]c(/N=C/c3ccc(N4CCCCC4)cc3)c2C(=O)Nc2ccc(C)cc2)cc1 [5e] has a documented Viability %, A549, 4th concentration of 37.08

In plain terms, COc1ccc(Nc2n[nH]c(N=Cc3ccc(N4CCCCC4)cc3)c2C(=O)Nc2ccc(Cl)cc2)cc1 [5f] has a documented Viability %, A549, 4th concentration of 46.48

In plain terms, O=C(Nc1ccccc1)c1c(Nc2ccccc2)n[nH]c1N=Cc1ccc(N2CCCCC2)cc1 [5a] has a documented Viability %, A549, 4th concentration of 46.48
